Recorded measurements of melting point, one per entry

Record excerpt, results attached:
1) CC(=O)OC1CCC(c2ccccc2)CC1 (centres undefined) | 43 to 45 °C
2) O=C1O[C@@H](Cn2ccnn2)CN1c1ccc(-c2ccc(C(O)C3CC3)nc2)c(F)c1 (some centres undefined) | 160 to 163 °C
3) c1cnc2[nH]c(CCCN3CCOCC3)nc2c1 | 101 to 103 °C
4) C[C@H]1CCCC(C)(C)[C@@H]1[C@H](O)c1ccc(OC(F)(F)F)cc1 | 29 to 33 °C
5) O=C1C(CN2CCN(CCO)CC2)CCN1c1ccc(Cl)cc1 (centres undefined) | 130 to 131 °C
6) CC(C)NC(=O)N1CCC(F)(Cc2c3c(nn2C)c(N)nc2ccccc23)CC1 | 241 to 244 °C
7) CCOC(=O)c1cn(OC)c2nc3cc(F)c(F)cc3cc2c1=O | 266 to 268 °C
8) O=C(C=Cc1ccccc1O)OCCc1ccccc1 | 40 °C

Lookup result for "C=CC(=O)OCCCC#Cc1ccc(C(F)(F)Oc2ccc(OC(F)(F)c3ccc(C#CCCCOC(=O)C=C)cc3)c(C)c2)cc1" ; measured melting point: 51 °C

----------
ASSAY_READOUT: melting point

1) COc1nc2cc(Cl)c(Cl)c(-n3c(CO)nnc3-c3cccnc3)c2nc1OC | 209 to 210 °C
2) C=CCOC(=O)NCc1noc([C@H](CS)NC(=O)OC(C)(C)C)n1 | 55 to 58 °C

--- query ---
// recorded melting point for "Nc1ncc(Cc2ccccc2)cc1Br" : 110 to 111 °C

----------
Catalogue of compounds with associated melting point

For this compound ( "COc1ccc(-c2[nH]cnc2-c2cc(OC)c(Br)c(OC)c2)cc1O" ), measured melting point is 185 to 187 °C

Notebook: "CC(C)c1cccc(C(C)C)c1NC(=O)NCCN1CCN(CCSc2nc3ccccc3[nH]2)CC1" , melting point read as 120 to 122 °C

melting point recorded for this compound, "Cc1ccnc2c(Oc3ccccc3[N+](=O)[O-])cccc12" , is 98 to 99 °C

So for "CCC(=O)C=Cc1ccc(OCc2ccccc2)cc1" , the logged melting point turned out to be 123 to 125 °C

Lab note: measured melting point of "c1ccc(-c2ncc(-c3nnn[nH]3)cn2)cc1" was 237 °C

What the record says about "CCC(=O)Oc1ccc2nc(NC(=O)Nc3ccccc3)sc2c1" : melting point is 212 to 215 °C

Record "CCCCN(CCCC)c1nc(Nc2ccc3c(c2)C(=O)c2ccccc2C3=O)nc(N(CCCC)CCCC)n1" . Reported melting point: 140 to 145 °C

# melting point (compound: CC1(C)CC(=O)C(C(=O)Nc2cccc(C(F)(F)F)c2)C(=O)O1 (configuration not stated) ) is 150 °C

melting point for Cc1c(C)c(N2Cc3cc(Cl)c(Cl)cc3C2)c(C)c2c1OC(C)(C)C2c1ccc(F)cc1 (configuration not stated) is 233 to 238 °C

So, "O=C(NCCc1ccc2c(c1)OCO2)C12CC3CC(CC(C3)C1)C2" ? Its melting point was 146 to 148 °C

For "CNC(=O)On1cc(Cl)cn1" the compound record lists melting point as 125 °C

Form: compound = "O=C(Nc1cccc2c1C(=O)c1c-2n[nH]c1-c1ccc(N2CCNCC2)cc1)NN1CCN(CCO)CC1" ; melting point = 279 °C

The recorded melting point for entry "CCOC(=O)C(=CNc1ccc(CC)nc1)C(=O)OCC" equals 55 to 57 °C

Memo: C/C(=C\c1ccc(OC(C)C)cc1Oc1ncc(C(F)(F)F)cc1Cl)C(=O)NS(=O)(=O)NC1CCC(C)CC1 (configuration not stated) , reported melting point: 177 °C

Reported melting point of "Clc1cc(Nn2cccc2)ncn1" : 196 to 198 °C

Lab note: CC1=CC(=O)CC2CCC3C4C(C#N)CC(=O)C4(C)CCC3C12C (configuration not stated) gave melting point of 193 °C

Sample "Cc1nc(-c2cc3c(Oc4ccc(Cl)cc4)cncc3s2)no1" ; melting point observed: 120 to 121 °C

Lab book: melting point of "NC(=O)c1c(F)cc(NC2CCNCC2)cc1F" noted as 166 to 168 °C

Reported melting point ( OCC(O)CNc1nc(-c2ccc(Cl)c(Cl)c2)nc2ccccc12 (configuration not stated) ) = 162 to 164 °C

For this compound ( "CC(C)(C)NC(=O)[C@@H]1[C@@H](Cl)CCN1C(=O)[C@@H](O)[C@H](Cc1ccccc1)NC(=O)[C@H](CC(N)=O)NC(=O)OCc1ccccc1" ), measured melting point is 102 to 104 °C

melting point reported for this compound "Cc1sc2c(Br)c3ccccc3c(-c3ccc(O)c([N+](=O)[O-])c3)c2c1C" : 183 to 185 °C
